Ref: PubChem BioAssay AID1159580

Assay: chemical genetic growth profiling, strain panel (AID 1159580);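 note: tested at 20 µM; growth read once vehicle control cultures reached saturation at 30 °C; 1 = growth at the plate median or of vehicle wells; lower values mean less growth of the strain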
Conditions: S. cerevisiae deletion strains, growth OD, locus YFR010W, strain ubp6
Hit rate of the full screen: of about 5,500 compounds, about 2,000 (36%) were called active. Roughly 18% stayed inconclusive and do not appear here. Cut-off read from the data, not from the text of the source: active = normalized growth mostly below about 0.91 (no sharp cut-off); inconclusive = no clear call, values can overlap the other calls; inactive = mostly above about 0.92. The list shows a part of the results.
One label from this list, please: active, inactive

Recorded test call requested for "CC(=O)Oc1ccc(/C=C/c2cc(OC(C)=O)cc(OC(C)=O)c2)cc1"
inactive

Recorded test call requested for CN1CCN(C(=O)OC2c3nccnc3C(=O)N2c2ccc(Cl)cn2)CC1 (centres undefined)
inactive

Recorded test call requested for "CC(=O)Nc1ccc(S(=O)(=O)Nc2onc(C)c2C)cc1"
inactive

Recorded test call requested for "CN(C)[C@@H]1C(=O)C(C(N)=O)=C(O)[C@@]2(O)C(=O)C3=C(O)c4c(O)cccc4[C@@](C)(O)[C@H]3[C@H](O)[C@@H]12"
inactive

Recorded test call requested for "O=C(CC(=O)c1ccccc1)c1ccccc1"
active

Recorded test call requested for CC(C)=CCCC(C)[C@@H]1CC[C@]2(C)C3=C(CC[C@@]12C)C1(C)CC[C@H](O)C(C)(C)C1CC3 (some centres undefined)
inactive

Recorded test call requested for "CNNC"
inactive

Recorded test call requested for "Cc1cn[nH]c1"
inactive

Recorded test call requested for "CN(C)[C@@H]1C(=O)C(C(N)=O)=C(O)[C@@]2(O)C(=O)C3=C(O)c4c(O)ccc(Cl)c4[C@@H](O)[C@H]3C[C@@H]12"
inactive

###

Assay: chemical genetic growth profiling, strain panel (AID 1159580);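 note: tested at 20 µM; growth read once vehicle control cultures reached saturation at 30 °C; 1 = growth at the plate median or of vehicle wells; lower values mean less growth of the strain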
Details: S. cerevisiae deletion strains, growth OD, locus YJL166W, strain qcr8, hits give low values
Among all 5,500 compounds or so, about 2,000 (36%) were called active. About 18% were inconclusive and are not listed. Some of the results follow.
assay-endpoint: normalized growth

Please give the measured normalized growth for this compound: "O=C(O)c1ccccc1"
0.969 (inactive)

Please give the measured normalized growth for this compound: "CNCCCC12CCC(c3ccccc31)c1ccccc12"
0.958 (inactive)

Please give the measured normalized growth for this compound: NCC(N)C(=O)c1ccccc1 (centres undefined)
1.02 (inactive)

Please give the measured normalized growth for this compound: CC(=O)O[C@H]1CCC2(C)C3=C(CCC2C1(C)C)[C@]1(C)CCC(C(C)CCC=C(C)C)[C@@]1(C)CC3 (some centres undefined)
0.98 (inactive)

Please give the measured normalized growth for this compound: "CCCOc1ccc2nc(NC(=O)OC)[nH]c2c1"
1.02 (inactive)

Please give the measured normalized growth for this compound: "COC(=O)c1c(OC)cc2c(c1C)Oc1c(Cl)c(O)c(Cl)c(C)c1C(=O)O2"
0.974 (inactive)

Please give the measured normalized growth for this compound: "CS(=O)(=O)Nc1ccc([N+](=O)[O-])cc1Oc1ccccc1"
0.997 (inactive)

Please give the measured normalized growth for this compound: "CC(=O)N[C@@H](Cc1c[nH]c2ccccc12)C(N)=O"
1.04 (inactive)

Please give the measured normalized growth for this compound: "O=C(O)c1cc(O)c2c(c1)[C@@H]([C@H]1c3cc(C(=O)O)cc(O)c3C(=O)c3c(O[C@H]4O[C@H](CO)[C@@H](O)[C@H](O)[C@H]4O)cccc31)c1cccc(O[C@H]3O[C@H](CO)[C@@H](O)[C@H](O)[C@H]3O)c1C2=O"
0.958 (inactive)

Please give the measured normalized growth for this compound: "COc1ccc2cc(CCC(C)=O)ccc2c1"
0.989 (inactive)

Please give the measured normalized growth for this compound: "CC(=O)Oc1ccc(O)cc1"
0.978 (inactive)

Please give the measured normalized growth for this compound: "COC(=O)c1c(C)c2c(c(C)c1O)OC(=O)c1c(C)c(Cl)c(O)c(Cl)c1O2"
0.94 (inactive)

Please give the measured normalized growth for this compound: "CN(C)CCCN1c2ccccc2Sc2ccc(C(F)(F)F)cc21"
0.951 (inactive)

Please give the measured normalized growth for this compound: "CC(C)(C)NC[C@H](O)c1ccc(O)c(CO)c1"
1.02 (inactive)

Please give the measured normalized growth for this compound: "Nc1ccc(S(=O)(=O)NC(=O)c2ccccc2)cc1"
0.983 (inactive)

Please give the measured normalized growth for this compound: "CS(=O)(=O)c1ccc([C@@H](O)[C@@H](CO)NC(=O)C(Cl)Cl)cc1"
1.02 (inactive)

Please give the measured normalized growth for this compound: CC(C)NCC(O)COc1ccc(COCCOC(C)C)cc1 (centres undefined)
1.01 (inactive)

Please give the measured normalized growth for this compound: C[C@H](CCC(=O)O)[C@H]1CCC2C3C(=O)CC4CC(=O)CC[C@]4(C)C3CC(=O)[C@@]21C (some centres undefined)
0.916 (inactive)

Please give the measured normalized growth for this compound: "COC(=O)/C(=C1\OC(=O)C(c2ccccc2)=C1O)c1ccccc1"
0.993 (inactive)

Please give the measured normalized growth for this compound: "CCCc1cc(=O)[nH]c(=S)[nH]1"
1.04 (inactive)

Please give the measured normalized growth for this compound: CCN1CCN(C(=O)NC(C(=O)N[C@@H]2C(=O)N3[C@@H]2SC(C)(C)[C@@H]3C(=O)O)c2ccccc2)C(=O)C1=O (some centres undefined)
0.992 (inactive)

Please give the measured normalized growth for this compound: "O=C1NC(O)=NC1(c1ccccc1)c1ccccc1"
1.02 (inactive)

Please give the measured normalized growth for this compound: "O=C(CC(=O)c1ccccc1)c1ccccc1"
0.16 (active)

Please give the measured normalized growth for this compound: CC(=O)O[C@@H]1C=C[C@@]2(C)C(C[C@@H](OC(C)=O)[C@@]3(C)C4=CC(=O)O[C@@H](c5ccoc5)[C@]4(C)CCC23)C1(C)C (some centres undefined)
1 (inactive)

Please give the measured normalized growth for this compound: CC12CCC(=O)C=C1CCC1C2[C@@H](O)CC2(C)C1CC[C@]2(O)C(=O)COP(=O)(O)O (some centres undefined)
0.986 (inactive)

Please give the measured normalized growth for this compound: CC(C)(C)NCC(O)c1ccc(O)c(CO)c1 (centres undefined)
0.999 (inactive)

Please give the measured normalized growth for this compound: "NCC(=O)c1ccccc1"
1.02 (inactive)

Please give the measured normalized growth for this compound: O=P1(N(CCCl)CCCl)NCCCO1 (centres undefined)
1.03 (inactive)

Please give the measured normalized growth for this compound: "CCN(CC)CCOCCOC(=O)C1(c2ccccc2)CCCC1"
0.997 (inactive)

Please give the measured normalized growth for this compound: "CN(C)[C@@H]1C(=O)C(C(=O)NCN2CCCC2)=C(O)[C@@]2(O)C(=O)C3=C(O)c4c(O)cccc4[C@@](C)(O)[C@H]3C[C@@H]12"
0.944 (inactive)

Please give the measured normalized growth for this compound: CC(=O)OCC(=O)[C@@]1(O)[C@H](C)CC2C3CCC4=CC(=O)C=C[C@]4(C)[C@@]3(F)[C@@H](O)C[C@@]21C (some centres undefined)
0.915 (inactive)

Please give the measured normalized growth for this compound: CC(Cc1cccc(C(F)(F)F)c1)NCCOC(=O)c1ccccc1 (centres undefined)
0.943 (inactive)

Please give the measured normalized growth for this compound: "CC(=O)Oc1ccc(C(c2ccc(OC(C)=O)cc2)c2ccccn2)cc1"
1 (inactive)

Please give the measured normalized growth for this compound: "CCOC(=O)[C@H](CCc1ccccc1)N[C@@H](C)C(=O)N1CCC[C@H]1C(=O)O"
1 (inactive)

Please give the measured normalized growth for this compound: "O=C(O)c1ccc(S(=O)(=O)N(Cl)Cl)cc1"
1.01 (inactive)

Please give the measured normalized growth for this compound: CC(CCc1ccccc1)NCC(O)c1ccc(O)c(C(N)=O)c1 (centres undefined)
1 (inactive)

Please give the measured normalized growth for this compound: "Cc1cc(=O)[nH]c(=S)[nH]1"
0.976 (inactive)

Please give the measured normalized growth for this compound: NC(Cn1ccc(=O)c(O)c1)C(=O)O (centres undefined)
1.01 (inactive)

Please give the measured normalized growth for this compound: "CC(=O)Nc1ccc(S(=O)(=O)Nc2onc(C)c2C)cc1"
0.983 (inactive)

Please give the measured normalized growth for this compound: "CN(C)CCCN1c2ccccc2Sc2ccc(Cl)cc21"
0.0785 (active)

Please give the measured normalized growth for this compound: "NC(=O)c1cccnc1"
0.978 (inactive)

Please give the measured normalized growth for this compound: CC(CCC(=O)O)[C@H]1CCC2C3CC[C@@H]4C[C@H](O)CC[C@]4(C)C3C=C[C@@]21C (some centres undefined)
0.894 (active)

Please give the measured normalized growth for this compound: "CN(C)CCCN1c2ccccc2Sc2ccccc21"
0.995 (inactive)

Please give the measured normalized growth for this compound: "O=C(O)c1cccnc1"
0.988 (inactive)
